# ASSAY COMMENT: change in splice reporter luminescence, either direction, cell-based, HEK293, spliceosome inhibition project, primary screen (AID 1101);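 also: HEK293 cells carrying a splicing-competent luciferase reporter gene; test concentration not given here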
# CONDITION: HEK293 splicing luciferase reporter, 24 h, higher = more signal, called active from +8 up or from −8 down
Give z-score for every item shown.
Numbers only.

Examples with their reported z-score follow.
COMPOUND: O=C(NCc1ccccc1)[C@@H]1c2ccccc2C(=O)N(C2CCCCC2)[C@H]1c1ccc(CO)cc1
ASSAY READOUT: z-score
RESULT NUMBER: 0.365
--
COMPOUND: CC(C)C[C@@H]1NC(=O)[C@@H]2C[C@H](C(=O)NCCCCN(C)C)[C@H](c3ccc(O)cc3)N2C1=O
ASSAY READOUT: z-score
RESULT NUMBER: 0.619
--
COMPOUND: O=C1OCC=C[C@H]2OC34C=CCN(CCN5CCOCC5)C(=O)[C@H]3N(CCCCCCO)C(=O)[C@@H]4[C@@H]12 (stereo partly drawn)
ASSAY READOUT: z-score
RESULT NUMBER: 0.364
--
COMPOUND: CN1C(=O)C2C=CC(C(O)C(c3ccccc3)c3ccccc3)N(Nc3ccccc3)C2C1=O (stereo not drawn)
ASSAY READOUT: z-score
RESULT NUMBER: 0.559
--
COMPOUND: CC(C)NC(=O)[C@@]1(c2ccc([N+](=O)[O-])cc2)CC(=O)N(C(C)C)[C@@H]1c1ccc(CO)cc1
ASSAY READOUT: z-score
RESULT NUMBER: -0.64
--
COMPOUND: O=C1O[C@@H](c2ccccc2)[C@@H](c2ccccc2)N2[C@@H](c3ccccc3OCCO)[C@]3(C(=O)Nc4ccc(C#CC5(O)CCCCCC5)cc43)[C@@H](C(=O)NC[C@H](O)c3ccccc3)[C@H]12
ASSAY READOUT: z-score
RESULT NUMBER: -0.525
--
COMPOUND: O=C1OCC=C[C@H]2OC34C=CCN(c5ccc6ccccc6c5)C(=O)[C@H]3N(CCO)C(=O)[C@@H]4[C@@H]12 (stereo partly drawn)
ASSAY READOUT: z-score
RESULT NUMBER: -0.461
--
COMPOUND: COc1ccc([Si](C)(C)[C@H]2[C@H](CC(=O)N(CCO)Cc3ccccc3)O[C@@]3(C(=O)N(Cc4cccc(N5C(=O)c6cccc7cccc5c67)c4)c4ccccc43)[C@@H]2C)cc1
ASSAY READOUT: z-score
RESULT NUMBER: -2.5
--
COMPOUND: O=C1O[C@@H](c2ccccc2)[C@@H](c2ccccc2)N2[C@@H](c3ccc(O)cc3)[C@]3(C(=O)Nc4ccccc43)[C@@H](C(=O)N3CCCCCCC3)[C@H]12
ASSAY READOUT: z-score
RESULT NUMBER: -1.29
--
COMPOUND: COc1ccc([Si](C)(C)[C@@H]2[C@@H](CCn3cc([C@H](O)c4ccccc4)nn3)O[C@]3(C(=O)N(C)c4ccccc43)[C@H]2C)cc1
ASSAY READOUT: z-score
RESULT NUMBER: 0.0848

Would you be so kind as to report z-score for each listed record?
1. CN1C(=O)C2C(C1=O)C1C=C(c3ccc(CO)cc3)C2C(C2CC2)N1Cc1sc2ccccc2c1Cl (stereo not drawn)
2. COc1ccc([Si](C)(C)[C@H]2[C@H](CCO)O[C@@]3(C(=O)N(Cc4ccccc4)c4ccc(N5C(=O)COc6ccccc65)cc43)[C@@H]2C)cc1
3. COCCOC(=O)N1C(=O)[C@@]2(c3cc(C#CC4=CCCCC4)ccc31)[C@H](c1ccc(OCCO)cc1)N1[C@H](c3ccccc3)[C@H](c3ccccc3)OC(=O)[C@H]1[C@@H]2C(=O)Nc1nc2ccccc2s1

Data returned:
[0.254, -1.56, -0.831]

====

Give z-score for every item shown.
# ASSAY COMMENT: hepatitis C replication reporter changes, two-sided – Huh7 cells, luciferase reporter, HCV replication inhibitor project, primary screen (AID 1109);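 also: huh7 hepatoma cells harbouring a luciferase neomycin HCV replicon reporter; luciferase luminescence as measure of HCV replicon replication; test concentration not given here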
# CONDITION: Huh7 HCV replicon luciferase reporter, 48 h; higher = more signal

COMPOUND: COc1ccc(C(O)C2C=CC3C(=O)N(c4ccccc4)C(=O)C3N2Nc2ccccc2)c2ccccc12 (centres undefined)
z-score: -1.91
--
COMPOUND: CCCCN1CC=CC23O[C@@H]4C=CCCOC(=O)C4[C@H]2C(=O)N(CCCO)[C@@H]3C1=O (some centres undefined)
z-score: -1.1
--
COMPOUND: O=C1O[C@@H](c2ccccc2)[C@@H](c2ccccc2)N2[C@@H](c3ccc(O)cc3)[C@]3(C(=O)Nc4ccc(C#CCCO)cc43)[C@@H](C(=O)N3CCCCCCC3)[C@H]12
z-score: -1.18

Kindly consider the entry below.
Data request: What value of z-score has been recorded for this entry: COCCOC(=O)N1C(=O)[C@@]2(c3cc(C#Cc4ccc(OC)cc4)ccc31)[C@H](c1ccc(OCCO)cc1)N1[C@H](c3ccccc3)[C@H](c3ccccc3)OC(=O)[C@H]1[C@@H]2C(=O)N1CCc2cc(OC)c(OC)cc2C1
Data returned: -0.603

====

# STUDY SYSTEM: Left-right determination factor 2 (Homo sapiens)
# ASSAY COMMENT: small molecules binding LEFTY2 protein – biochemical, small-molecule microarray, 635 nm fluorescence scan, primary screen (AID 1110)
# CONDITION: higher = more signal
Give composite z-score for every item shown.
Numbers only.

Examples with their reported composite z-score follow.
MOLECULE: COCCCNC(=O)[C@@]1(C)c2ccccc2C(=O)N(Cc2ccccc2)[C@H]1c1ccc(CO)cc1
composite z-score: -2.9

MOLECULE: C=CCN1C(=O)[C@@]2(O[C@@H](CCO)[C@H]([Si](C)(C)c3ccc(OC)cc3)[C@H]2C)c2cc(N3C(=O)COc4ccccc43)ccc21
composite z-score: 0.345

Would you be so kind as to report composite z-score for each listed record?
1. NC(=O)NCC#Cc1ccc2c(c1)[C@]1(C(=O)N2)[C@H](c2ccccc2OCCO)N2[C@H](c3ccccc3)[C@H](c3ccccc3)OC(=O)[C@H]2[C@@H]1C(=O)N1CCCCCCC1
2. CCCC[C@H]1C[C@@H]1[C@@H]1N(P(=O)(c2ccccc2)c2ccccc2)[C@](CO)(c2ccccc2)CC12CC2
3. CCCCN1CC=CC23O[C@@H]4C=CCCOC(=O)C4[C@H]2C(=O)N(CCCO)[C@@H]3C1=O (stereo not given in full)
4. COC(=O)[C@@]1(Cc2ccc(F)cc2)[C@H]2c3cc(C(=O)N(C)C)n(Cc4ccccn4)c3C[C@H]2CN1C(=O)c1ccccc1
5. O=C1C2C=CC(C(O)c3ccc(-c4ccccc4)s3)N(Nc3ccccc3F)C2C(=O)N1c1ccccc1 (stereo not given)
6. CCCNC(=O)[C@@]1(C)c2ccccc2C(=O)N(C(C)C)[C@H]1c1ccc(CO)cc1

Data returned:
1.34
-1.58
-0.513
0.256
-0.0452
-1.28

====

# System: wheat germ agglutinin (Triticum aestivum), Alexa647-labelled
# ASSAY COMMENT: Alexa647-WGA lectin binding to printed small molecules – biochemical, small-molecule microarray, 635/667 nm fluorescence, artefact control for SMM control-protein annotation, profiling panel (AID 1140);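 also: score merges 667 nm feature emission with signal to noise over triplicate slides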
# CONDITION: WGA-A647 binding, 635 nm fluorescence, higher = more signal
ASSAY READOUT: composite z-score

MOLECULE: [N-]=[N+]=Nc1ccccc1[C@H]1OC(c2ccc(OCCCO)cc2)=N[C@@]1(CCS(=O)(=O)c1ccccc1)C(=O)N1CCOCC1
RESULT: 1.47

Would you be so kind as to report composite z-score for each listed record?
1. C=CCOC(=O)[C@@H]1[C@H]2C(=O)O[C@H](c3ccccc3)[C@H](c3ccccc3)N2[C@H](c2ccc(OCCOC(=O)[C@H]3C[C@H]4C(=O)N[C@@H](CC(C)C)C(=O)N4[C@H]3c3cccc(OCCO)c3)cc2)[C@@]12C(=O)Nc1ccc(I)cc12
2. CCCNC(=O)[C@@]1(C)c2ccccc2C(=O)N(Cc2cc(C(F)(F)F)cc(C(F)(F)F)c2)[C@H]1c1ccc(CO)cc1
3. COC(=O)[C@@]1(Cc2ccc(F)cc2)[C@H]2c3cc(C(=O)N4CCCC4)n(Cc4ccc(Cl)c(C(F)(F)F)c4)c3C[C@H]2CN1C(=O)c1ccccc1
4. COC(=O)[C@@]1(Cc2ccc(F)cc2)[C@H]2c3cc(C(=O)N4CCCC4)n(CCc4ccc(OC)c(Br)c4)c3C[C@H]2CN1C(=O)c1ccccc1
5. CCCCCCCCCCC(O)C1C=CC2C(=O)N(c3ccccc3)C(=O)C2N1Nc1ccc([N+](=O)[O-])cc1 (stereo not drawn)
6. O=C(NCC(O)CO)[C@@]1(Cc2ccccc2)N=C(c2ccc(OCCCO)cc2)O[C@H]1c1ccccc1 (stereo partly drawn)
7. O=C1O[C@H](c2ccccc2)[C@H](c2ccccc2)N2[C@H]1[C@@H](C(=O)NC[C@H](O)c1ccccc1)[C@]1(C(=O)Nc3ccc(C#CC4(O)CCCCCC4)cc31)[C@H]2c1ccccc1OCCO

Data returned:
1: 0.34; 2: 0.463; 3: 1.22; 4: 1.38; 5: 0.56; 6: 0.922; 7: 0.794

Would you be so kind as to report composite z-score for each listed record?
1. C=CCC(OC(C)=O)[C@@H]1[C@@H](N(Cc2cc3ccccc3o2)C(=O)c2ccc(C)cc2)c2cc(OCCCO)ccc2N1C(=O)c1ccc(-c2ccccc2)cc1 (stereo partly drawn)
2. CC(C)C[C@@H]1NC(=O)[C@@H]2C[C@H](C(=O)NCCCCN(C)C)[C@H](c3ccc(O)cc3)N2C1=O
3. COc1c(C)cc(-c2cc3c(c(-c4ccccc4)n2)[Si](C(C)C)(C(C)C)O[C@H]3c2ccccc2)cc1C
4. O=C1O[C@@H](c2ccccc2)[C@@H](c2ccccc2)N2[C@@H](c3ccc(O)cc3)[C@]3(C(=O)Nc4ccccc43)[C@@H](C(=O)NC[C@H](O)c3ccccc3)[C@H]12
5. [N-]=[N+]=NCc1ccccc1C[C@]1(C(N)=O)N=C(c2ccc(OCCCO)cc2)O[C@H]1c1ccccc1N=[N+]=[N-]

Data returned:
1. 0.107
2. -0.153
3. 0.124
4. 0.0576
5. 1.03
